IC50, UniProt:Q9Y5X9, per-entry values.
Sequence (Q9Y5X9 whole entry): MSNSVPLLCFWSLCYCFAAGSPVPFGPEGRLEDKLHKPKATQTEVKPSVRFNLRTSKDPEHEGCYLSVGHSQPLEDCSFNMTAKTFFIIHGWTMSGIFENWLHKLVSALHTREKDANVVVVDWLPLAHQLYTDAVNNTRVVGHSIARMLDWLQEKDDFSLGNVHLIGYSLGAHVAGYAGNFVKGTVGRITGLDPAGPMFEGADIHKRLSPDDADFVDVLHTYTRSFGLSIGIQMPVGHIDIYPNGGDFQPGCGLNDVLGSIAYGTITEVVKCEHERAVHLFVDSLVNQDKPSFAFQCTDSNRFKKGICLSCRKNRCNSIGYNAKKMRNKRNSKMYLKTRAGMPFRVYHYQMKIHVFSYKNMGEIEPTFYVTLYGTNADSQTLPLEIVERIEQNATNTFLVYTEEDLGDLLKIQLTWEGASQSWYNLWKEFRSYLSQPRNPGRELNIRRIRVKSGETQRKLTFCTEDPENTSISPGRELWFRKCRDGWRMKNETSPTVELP
measurement_kind: IC50 (nM)

>>> df
                               query_smiles     measured_on  measurement_kind  readout_value
0  Nc1cc2c3c(c1)c(C(F)(F)F)c(CCCc1ccccc1)n3CCC2  UniProt:Q9Y5X9              IC50              4
1  COc1cc2c3c(c1)c(C(F)(F)F)c(CCc1ccccc1)n3CCC2  UniProt:Q9Y5X9              IC50             14
2  FC(F)(F)c1c(CCCc2ccccc2)n2c3c(cccc13)SCC2  UniProt:Q9Y5X9              IC50          33300

Values were extracted from ChEMBL document CHEMBL3091422.
